These measurements were taken from ChEMBL document CHEMBL1201862.

test system: RXF 393; assay: NCI tumour cell line growth inhibition, 48 h
Activity calls are given as the source filed them. Rule as the data show it: active = GI50 up to about 1.1 µM and inactive = higher.
measurement_name: GI50

Example results:
COc1cc([C@@H]2c3cc4c(cc3[C@@H](OC3OC5CO[C@@H](c6cccs6)OC5C(O)C3O)[C@H]3COC(=O)[C@H]23)OCO4)cc(OC)c1O (some centres not stated)	0.478 µM (active)
C1CSCCSCCCS[C@@H]2CCCCC2SC1 (some centres not stated)	> 100 µM (inactive)
C[N+](C)(C)CC1CCC(C[N+](C)(C)C)C1=NO (configuration not stated)	> 100 µM (inactive)

Input: State its GI50 for this molecule: "CC1=CC(=O)c2cccc(O)c2C1=O"
Output: 1.88 µM (inactive)

Input: Provide GI50 value for the following molecule: CCCCCC(C)C[C@H]1CO[C@H](c2ccc[nH]2)N[C@H]1C(=O)OC (some centres not stated)
Output: > 100 µM (inactive)

Input: Fill in GI50 for record "O=C(Nc1ccccn1)c1cc2c(cc1Cl)Sc1nccn1S2(=O)=O"
Output: 25.5 µM (inactive)

Input: Name the recorded GI50 of the item "Cc1ccc2c(c1)CN(C(=O)CCC(=O)OCc1ccccc1)c1ccc(C)cc1CN2C(=O)CCC(=O)OCc1ccccc1" in your answer.
Output: > 100 µM (inactive)

Input: Please supply the value of reported GI50 for the item "Brc1c2c(c(Br)c3nsnc13)N=S=N2"
Output: 15 µM (inactive)

Input: Respond only with GI50 recorded for "CCn1c(SCC(=O)NNC(=S)Nc2ccc([N+](=O)[O-])cc2)nc2ccccc2c1=O"
Output: 34.5 µM (inactive)

Input: # return recorded GI50 for entry "COc1ccc2cc(C(=O)NCCCNC(=O)c3ccc4cc(OC)ccc4c3)ccc2c1"
Output: 15.8 µM (inactive)

Input: Supply GI50 value. Item: O=c1c2ccccc2nc2n1C(c1ccc([N+](=O)[O-])cc1)C2(c1ccccc1)c1ccccc1 (configuration not stated)
Output: > 100 µM (inactive)

Input: Could you please provide reported GI50 for "CC(=O)Oc1ccc2c(c1)O/C(=C\c1ccc(N(C)C)cc1)C2=O" ? Thanks!
Output: 73.5 µM (inactive)

Input: Supply reported GI50 belonging to this molecule: "COc1ccc(/C=C2\N=C(N3CCOCC3)NC2=O)cc1"
Output: > 100 µM (inactive)

Input: Provide GI50 value for the following molecule: "COc1ccc(C2=NOP(c3ccccc3)(c3ccccc3)(c3ccccc3)C2)cc1"
Output: 28.9 µM (inactive)

Input: Give the value of GI50 reported for the following: CN1CCN(Cc2ccccc2)CC1CC#N (configuration not stated)
Output: > 100 µM (inactive)

Input: Note down GI50 recorded for O=C(O)C(SC(=S)c1ccc(C(=S)SC(C(=O)O)c2ccccc2)cc1)c1ccccc1 (configuration not stated)
Output: > 100 µM (inactive)

Input: Tell us which GI50 value is on record for "COc1cc2cc3c4c(cc(OC)c(OC)c4c2cc1OC)CCN3C(=O)OCCN1CCNCC1"
Output: 14.4 µM (inactive)

Input: Quick one: give measured GI50 for "NS(=O)(=O)c1nn2c(Br)c(-c3ccccc3)nc2s1"
Output: 0.847 µM (active)

Input: Provide one value: measured GI50 of "NC(=O)CN(CC(N)=O)C(N)=O"
Output: > 100 µM (inactive)

Input: // fetch GI50 given entry "CN(C)CCn1nc(N)c2nc3cc(C(F)(F)F)ccc3nc21"
Output: 26.4 µM (inactive)

Input: Answer with reported GI50 of COc1ccccc1C1c2cc3c(cc2OC(O)(CO)C1C(=O)O)OCO3.COc1ccccc1C1c2cc3c(cc2OC2(O)COC(=O)C12)OCO3 (configuration not stated)
Output: > 100 µM (inactive)

Input: Give the measured GI50 for "COc1ccc(-c2cc(N3CCN(c4ccccc4)CC3)c(C#N)c(=O)o2)cc1"
Output: 13.7 µM (inactive)

###

system: LOX IMVI; assay: NCI tumour cell line growth inhibition, 48 h
Active and inactive are the calls of the source. Cut-off read from the data, not from the text of the source: active = GI50 up to about 1.1 µM and inactive = higher.
measurement_name: GI50

Please review the following examples before continuing.
COc1ccc2c(c1)c[n+](C)c1c3cc(OC)c(OC)cc3ccc21	1.95 µM (inactive)
CN1CCN(Cc2ccccc2)CC1CC#N (stereo not given)	> 100 µM (inactive)
CC1Cn2c(nc3ccccc32)NC1=O (stereo not given)	> 100 µM (inactive)
CC(=O)O[C@H]1CCC2[C@@H]3CCC4Nc5c(cnn5-c5ccccc5)C[C@]4(C)C3CC[C@@]21C (stereo not given in full)	12.8 µM (inactive)
Cc1ccc2c(c1C)C(=O)/C(=C/c1cccc(C)c1C(=O)O)C2	44.1 µM (inactive)

Now let's try a different one.
Input: Look up and report GI50, with LOX IMVI as system, for "CSc1nc2ccccc2c(=O)n1/N=C1\C(=O)N(CN2CCCCC2)c2ccc(Cl)cc21"
Output: 14.2 µM (inactive)

###

test system: HCT-15
measurement_name: GI50

Look over these answered cases.
O=C(NCCCN1CCN(CCCNC(=O)c2cnc3ccccc3n2)CC1)c1cnc2ccccc2n1	> 100 µM
CN1C[C@@H]2CCCN2P1Oc1cccc2cccnc12 (some centres undefined)	16.6 µM
CN(Cc1ccccc1)c1nc(=[N+](C)C)ss1	> 100 µM
CN/N=C(/CCN1CCCC1)CC(c1ccccc1)c1c(O)c2ccccc2oc1=O (centres undefined)	> 100 µM
Nc1ccc(Oc2ccc(C34CC5CC6C3CC3CC4C(C5)C6(c4ccc(Oc5ccc(N)c(O)c5)cc4)C3)cc2)cc1O	3.44 µM

Input: Retrieve GI50 on HCT-15; query "O=C1NC(N2CCOCC2)=N/C1=C\c1ccc(Cl)cc1"
Output: > 100 µM

Input: Output reported GI50 of the molecule CC1=CCS(=O)(=O)C1C(O)C1=C(C)CCCC1(C)C (centres undefined) on HCT-15.
Output: > 100 µM

Input: Provide the reported GI50 (system: HCT-15) for O=C1CCCCC1C1(O)C(=O)Nc2cc(F)ccc21 (centres undefined)
Output: > 100 µM

Input: Lab note: HCT-15 assay, enter GI50 for "COc1ccc([C@]23CCN4COC[C@@H]([C@H]42)C2(CC3)OCC(C)(C)CO2)cc1OC" here
Output: > 100 µM

Input: Provide GI50, tested on HCT-15, for CCOC(=O)C(C[Si](C)(C)C)P(=O)(OCC)OCC (centres undefined) .
Output: > 100 µM

Input: Give reported GI50 for NC(=O)c1ncn2c(=O)n(CCCl)nnc12 [MITOZOLOMIDE] (HCT-15)
Output: 175 µM

###

GI50 by entry:
system: SF-268; assay: NCI tumour cell line growth inhibition, 48 h
The source made the active and inactive calls. Rule as the data show it: active = GI50 up to about 1.1 µM and inactive = higher.

CCOP(=O)(OCC)C(C)(C)OC(=O)NC#N	> 100 µM (inactive)
CNC(=O)C(NC(=O)[C@H](CC(C)C)NC(=O)[C@@H](S)CCN1C(=O)N(C)C(C)(C)C1=O)C(C)(C)C (stereo partly specified)	> 100 µM (inactive)
C#CCCCOc1ncccn1	> 100 µM (inactive)
C1CCCCc2nc3c(nc2CCC1)c1nc2c(nc1c1nc4c(nc31)CCCCCCCC4)CCCCCCCC2	> 100 µM (inactive)
COC(=O)[C@@H]1CN(C(=O)c2ccccc2)C(=O)N1C(=O)OCc1ccccc1	> 100 µM (inactive)

Continue with the compound presented below.
Input: Indicate the recorded GI50 value for this compound: "C=CN1C(=O)OC[C@@H]1c1ccccc1"
Output: > 100 µM (inactive)

###

GI50 values for the compounds below.
test system: OVCAR-4; experiment: NCI tumour cell line growth inhibition, 48 h
The source made the active and inactive calls. Rule as the data show it: active = GI50 up to about 1.1 µM and inactive = higher.

Solved cases (3 shown):
CC1CCC2(C)C(CC=C(C=O)C2(O)C=O)C12CO2 (stereo not given)	2.23 µM (inactive)
Cc1cc2[nH]c3c(C#N)c(-c4ccccc4)c(/C=N/c4ccc(F)cc4)c(=O)n3c2cc1C	> 100 µM (inactive)
CC(C)(C)Cc1cc(O)ccc1O	> 100 µM (inactive)

Input: Give reported GI50 value for "COc1ccc([C@]23CCN4COC[C@@H]([C@H]42)C2(CC3)OCC(C)(C)CO2)cc1OC"
Output: > 100 µM (inactive)

Input: Provide one value: measured GI50 of "O=C(O)c1cc(-c2ccncc2)nc2ccccc12"
Output: > 100 µM (inactive)

Input: Give me measured GI50, please, for this compound: COC(=O)C(=O)C(C(=O)OC)C(=O)C(=O)Nc1ccccc1C(N)=O (stereo not given)
Output: 66.5 µM (inactive)

Input: Please supply the value of reported GI50 for the item COc1ccc(C(=O)C(c2ccc(OC)cc2)C2(O)C(=O)Nc3ccc([N+](=O)[O-])cc32)cc1 (stereo not given)
Output: > 100 µM (inactive)

Input: Give a short answer stating reported GI50 for NC(Cc1ccccc1)C(=O)OCN1C(=O)C2C3C=CC(C2C1=O)C1C2C(=O)N(COC(=O)C(N)Cc4ccccc4)C(=O)C2C31 (stereo not given) .
Output: 18.3 µM (inactive)

Input: In one line, give reported GI50 of the entry C=CCC(CNC(=O)OCc1ccccc1)OC(=O)OCc1ccccc1 (stereo not given) .
Output: 69.8 µM (inactive)

Input: Query GI50 for "CN(N=O)c1nc2c(C(N)=O)ncn2s1"
Output: 47.9 µM (inactive)
